System: A549
assay protocol: Cytotoxicity in human A549 cells by sulforhodamine B colorimetric assay
Format: functional, cell-based
measure name: pIC50
One number for each entry, as −log10 of the molar value.

Example compounds with recorded pIC50:
CC(C)C[C@H](O)C(=O)NS(=O)(=O)OC[C@H]1O[C@@H](n2cnc3c(N)nc(I)nc32)[C@H](O)[C@@H]1O : 5.76
CC(C)C[C@H](N)C(=O)NS(=O)(=O)OC[C@H]1O[C@@H](n2cnc3c(N)ncnc32)[C@H](O)[C@@H]1O : 6.23
COc1cc([C@@H]2c3cc4c(cc3[C@@H](O[C@@H]3O[C@@H]5CO[C@@H](C)O[C@H]5[C@H](O)[C@H]3O)[C@H]3COC(=O)[C@H]23)OCO4)cc(OC)c1O [ETOPOSIDE] : 6.62

With those in mind, consider the next compound.
Query :: What value of pIC50 has been reported for the following compound? "CC(C)[C@@H](O)[C@H](O)C(=O)NS(=O)(=O)OC[C@H]1O[C@@H](n2cnc3c(N)ncnc32)[C@H](O)[C@@H]1O"
Result :: 5.79

====

assay system: Leucine--tRNA ligase, cytoplasmic (Homo sapiens, UniProt Q9P2J5)
Sequence (Q9P2J5 whole entry): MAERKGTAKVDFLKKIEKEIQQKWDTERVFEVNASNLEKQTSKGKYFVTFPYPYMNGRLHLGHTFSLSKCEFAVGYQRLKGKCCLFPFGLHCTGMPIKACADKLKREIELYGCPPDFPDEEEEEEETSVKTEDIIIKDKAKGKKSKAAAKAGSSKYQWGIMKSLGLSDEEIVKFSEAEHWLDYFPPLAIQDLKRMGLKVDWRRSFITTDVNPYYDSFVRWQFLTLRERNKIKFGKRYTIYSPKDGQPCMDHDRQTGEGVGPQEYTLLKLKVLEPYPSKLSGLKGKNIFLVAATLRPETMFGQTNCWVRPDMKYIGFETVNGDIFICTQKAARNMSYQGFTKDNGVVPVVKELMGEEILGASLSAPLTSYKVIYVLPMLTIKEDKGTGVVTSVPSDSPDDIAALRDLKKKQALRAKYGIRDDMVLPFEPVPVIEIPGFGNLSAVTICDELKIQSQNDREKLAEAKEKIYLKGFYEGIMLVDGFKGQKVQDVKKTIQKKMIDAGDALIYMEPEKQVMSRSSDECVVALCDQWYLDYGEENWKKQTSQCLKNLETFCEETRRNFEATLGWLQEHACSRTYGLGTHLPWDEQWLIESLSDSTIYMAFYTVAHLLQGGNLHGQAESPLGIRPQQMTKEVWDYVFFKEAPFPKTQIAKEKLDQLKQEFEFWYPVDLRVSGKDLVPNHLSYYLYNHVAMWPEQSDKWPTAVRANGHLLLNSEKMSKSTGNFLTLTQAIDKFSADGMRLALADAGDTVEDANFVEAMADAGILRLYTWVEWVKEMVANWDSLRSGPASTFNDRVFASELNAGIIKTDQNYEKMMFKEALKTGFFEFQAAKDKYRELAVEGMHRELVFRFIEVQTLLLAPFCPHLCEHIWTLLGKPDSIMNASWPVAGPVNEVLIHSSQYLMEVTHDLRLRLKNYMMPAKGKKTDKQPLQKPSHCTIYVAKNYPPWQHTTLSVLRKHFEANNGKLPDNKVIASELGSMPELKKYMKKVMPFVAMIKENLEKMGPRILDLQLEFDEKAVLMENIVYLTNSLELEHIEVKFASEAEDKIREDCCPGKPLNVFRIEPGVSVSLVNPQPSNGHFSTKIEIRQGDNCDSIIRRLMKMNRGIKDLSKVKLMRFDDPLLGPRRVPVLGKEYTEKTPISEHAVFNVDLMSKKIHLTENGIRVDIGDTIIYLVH
measure name: IC50 (nM)
Numbers only, in nM.

Query :: Lab request: please report IC50 under test system Leucine--tRNA ligase, cytoplasmic (Homo sapiens, UniProt Q9P2J5) for CC(C)C[C@H](N)C(=O)NS(=O)(=O)OC[C@H]1O[C@@H](n2cnc3c(N)ncnc32)[C@H](O)[C@@H]1O [LEUSA]
Result :: 22.3

====

System: MRC5
assay protocol: Cytotoxicity in human MRC5 cells by sulforhodamine B colorimetric assay
Assay type: cell-based
measure name: IC50

CC(C)C[C@H](O)C(=O)NS(=O)(=O)OC[C@H]1O[C@@H](n2cnc3c(N)nc(I)nc32)[C@H](O)[C@@H]1O : > 50 µM
CC(C)[C@@H](O)[C@H](O)C(=O)NS(=O)(=O)OC[C@H]1O[C@@H](n2cnc3c(N)ncnc32)[C@H](O)[C@@H]1O : > 50 µM

Now for another entry.
Query :: Consider the compound shown here: "CC(C)C[C@H](N)C(=O)NS(=O)(=O)OC[C@H]1O[C@@H](n2cnc3c(N)ncnc32)[C@H](O)[C@@H]1O" What is its recorded IC50?
Result :: 5.9 µM

====

Tested on: SNU-638
assay protocol: Cytotoxicity in human SNU-638 cells by sulforhodamine B colorimetric assay
Format: functional, cell-based
measure name: IC50 (µM)
Answers are plain numbers, in µM.

CC(C)C[C@H](N)C(=O)NS(=O)(=O)OC[C@H]1O[C@@H](n2cnc3c(N)ncnc32)[C@H](O)[C@@H]1O : 0.84
CC(C)C[C@H](O)C(=O)NS(=O)(=O)OC[C@H]1O[C@@H](n2cnc3c(N)nc(I)nc32)[C@H](O)[C@@H]1O : 5.7
CC(C)[C@@H](O)[C@H](O)C(=O)NS(=O)(=O)OC[C@H]1O[C@@H](n2cnc3c(N)ncnc32)[C@H](O)[C@@H]1O : 8.98

# context switch: different compound, same IC50
Query :: Which value of IC50 has been reported for COc1cc([C@@H]2c3cc4c(cc3[C@@H](O[C@@H]3O[C@@H]5CO[C@@H](C)O[C@H]5[C@H](O)[C@H]3O)[C@H]3COC(=O)[C@H]23)OCO4)cc(OC)c1O [ETOPOSIDE] in the records?
Result :: 0.56

Measured values drawn from ChEMBL document CHEMBL4680099 for this set.
